tested on: IRAK4 (Homo sapiens, UniProt Q9NWZ3)
Construct: endogenous in cells; host or cells: THP-1 cells
Sequence (Q9NWZ3 whole entry): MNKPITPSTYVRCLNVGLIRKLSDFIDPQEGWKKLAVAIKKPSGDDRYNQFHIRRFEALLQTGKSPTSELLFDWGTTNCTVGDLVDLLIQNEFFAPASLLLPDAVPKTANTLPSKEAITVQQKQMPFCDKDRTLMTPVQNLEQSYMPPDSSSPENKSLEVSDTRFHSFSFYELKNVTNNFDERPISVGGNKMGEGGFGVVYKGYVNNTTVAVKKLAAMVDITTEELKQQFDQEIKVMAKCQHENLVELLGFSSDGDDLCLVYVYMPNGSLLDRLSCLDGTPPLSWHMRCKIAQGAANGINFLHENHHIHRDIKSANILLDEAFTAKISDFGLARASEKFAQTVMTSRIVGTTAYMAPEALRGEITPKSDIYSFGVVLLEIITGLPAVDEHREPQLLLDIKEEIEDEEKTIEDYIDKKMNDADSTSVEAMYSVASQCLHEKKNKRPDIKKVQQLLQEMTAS
test description: LVL THP1 HTRF (THP1 Homogeneous Time Resolved Fluorescence)
Assay type: cell-based
experimental conditions: THP1 cells, 18 h incubation with compound
observed property: LVL THP1 HTRF YMIN (%)

Below: 2 compounds and their reported LVL THP1 HTRF YMIN.
{"columns": ["compound", "tested on", "unit name", "LVL THP1 HTRF YMIN"],
 "data": [
  ["C[C@H](C#N)Nc1cc(-n2ncc3cc(C#N)cnc32)ncc1-n1cc(C2CCC(CCN3CCN(c4ccc(C5CCC(=O)NC5=O)cc4)[C@@H](C)C3)CC2)nn1 (stereo in doubt)", "IRAK4 (Homo sapiens, UniProt Q9NWZ3)", "%", 2.0],
  ["C[C@H](C#N)Nc1cc(-n2ncc3cc(C#N)cnc32)ncc1-n1cc(C2CCC(CCN3CCN(c4ccc([C@@]5(C)CCC(=O)NC5=O)cc4)[C@H](C)C3)CC2)nn1 (some centres unmarked)", "IRAK4 (Homo sapiens, UniProt Q9NWZ3)", "%", 8.6]
]}

1. C[C@H](C#N)Nc1cc(-n2ncc3cc(C#N)c(N)nc32)ncc1-n1cc([C@H]2CC[C@H](CCN3CCN(c4ccc([C@@]5(C)CCC(=O)NC5=O)cc4)[C@H](C)C3)CC2)nn1 (stereo in doubt)
2. C[C@H](C#N)Nc1cc(-n2ncc3cc(C#N)cnc32)ncc1-n1cc(C2CCC(CCN3CC[C@H]4[C@@H]3CCN4c3ccc(N4CCC(=O)NC4=O)cc3)CC2)nn1 (single isomer, unassigned)
3. C[C@H](C#N)Nc1cc(-n2ncc3cc(C#N)c(N)nc32)ncc1C(=O)N[C@H]1CC[C@H](CCN2CCN(c3ccc(C4CCC(=O)NC4=O)c(F)c3)[C@H](C)C2)CC1 (some centres unmarked)
Req: Order these by LVL THP1 HTRF YMIN, descending, and give the full ranking. Kindly provide the labels arranged according to the requested ordering.
Resp: 1, 2, 3
(1: 7.6%, 2: 2.5%, 3: 0.7%)
